# testedOn: human hNET (Homo sapiens, UniProt P23975)
# Construct: expressed in transfected cells; host or cells: MDCK-Net6 (MDCK cells stably transfected)
# Sequence (P23975 whole entry): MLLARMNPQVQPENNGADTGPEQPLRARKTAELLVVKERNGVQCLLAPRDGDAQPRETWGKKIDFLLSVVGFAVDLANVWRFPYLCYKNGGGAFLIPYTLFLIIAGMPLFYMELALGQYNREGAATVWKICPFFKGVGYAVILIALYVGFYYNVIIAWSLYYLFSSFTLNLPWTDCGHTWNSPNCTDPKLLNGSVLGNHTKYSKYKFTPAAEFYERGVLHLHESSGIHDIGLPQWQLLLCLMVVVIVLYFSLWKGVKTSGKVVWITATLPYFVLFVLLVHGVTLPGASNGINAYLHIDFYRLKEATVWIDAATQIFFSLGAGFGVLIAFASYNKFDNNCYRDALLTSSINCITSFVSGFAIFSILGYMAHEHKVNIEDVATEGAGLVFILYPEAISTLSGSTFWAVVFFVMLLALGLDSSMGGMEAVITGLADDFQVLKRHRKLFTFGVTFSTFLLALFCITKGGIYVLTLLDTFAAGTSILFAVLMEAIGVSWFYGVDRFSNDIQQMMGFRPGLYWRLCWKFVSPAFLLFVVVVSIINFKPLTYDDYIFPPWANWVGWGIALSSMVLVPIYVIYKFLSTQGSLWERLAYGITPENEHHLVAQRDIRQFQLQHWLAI
# testDescription: Functional Norepinephrine (NE) Uptake Assay in MDCK-Net6 cells
# Type: cell-based
# conditionNotes: MDCK-Net6 cells stably transfected with human hNET; 3H norepinephrine 16 nM
Output yes (1) for records whose IC50 is lower than 3000 nM, no (0) for records at or above 3000 nM.

Query string: Item CNCCCN1Cc2ccccc2N(c2ccccc2F)S1(=O)=O [Example 13] : IC50 beneath 3000 nM, strictly?
Result string: yes (1)

----------
# testedOn: human hNET (Homo sapiens, UniProt P23975)
# Construct: expressed in transfected cells; host or cells: MDCK-Net6 (MDCK cells stably transfected)
# testDescription: Functional Norepinephrine (NE) Uptake Assay in MDCK-Net6 cells
# Assay type: cell-based
# conditionNotes: MDCK-Net6 cells stably transfected with human hNET; 3H norepinephrine 16 nM
Where a name gives a salt, the structure may show the parent alone.
Kindly state log10 of IC50 for each of the entries shown.
Base-10 log of IC50, unit nM.

compound | log10 of IC50
O=S1(=O)N(CCNC2CC2)Cc2ccccc2N1c1ccccc1F | 3.38
O=S1(=O)N(CCCCNC2CC2)Cc2ccccc2N1c1ccccc1F | 2.14
CNCCCN1Cc2ccccc2N(c2cccc(OC)c2)S1(=O)=O [Example 4, hydrochloride] | 2.90
CNCCN1Cc2ccccc2N(c2ccccc2F)S1(=O)=O | 2.30
O=S1(=O)N(CCCNC2CC2)Cc2ccccc2N1c1ccccc1F | 2.98

// input: 2 compounds below; output: log10 of IC50 for each
1. CNCCCN1Cc2ccccc2N(c2ccccc2)S1(=O)=O [Example 1, hydrochloride]
2. CNCCCN1Cc2ccccc2N(c2ccc(F)c(F)c2)S1(=O)=O [Example 10, hydrochloride]

Result string:
2.11
2.99
